Target: Recombinant purified human BTK (Homo sapiens, UniProt Q06187)
Sequence (Q06187 whole entry): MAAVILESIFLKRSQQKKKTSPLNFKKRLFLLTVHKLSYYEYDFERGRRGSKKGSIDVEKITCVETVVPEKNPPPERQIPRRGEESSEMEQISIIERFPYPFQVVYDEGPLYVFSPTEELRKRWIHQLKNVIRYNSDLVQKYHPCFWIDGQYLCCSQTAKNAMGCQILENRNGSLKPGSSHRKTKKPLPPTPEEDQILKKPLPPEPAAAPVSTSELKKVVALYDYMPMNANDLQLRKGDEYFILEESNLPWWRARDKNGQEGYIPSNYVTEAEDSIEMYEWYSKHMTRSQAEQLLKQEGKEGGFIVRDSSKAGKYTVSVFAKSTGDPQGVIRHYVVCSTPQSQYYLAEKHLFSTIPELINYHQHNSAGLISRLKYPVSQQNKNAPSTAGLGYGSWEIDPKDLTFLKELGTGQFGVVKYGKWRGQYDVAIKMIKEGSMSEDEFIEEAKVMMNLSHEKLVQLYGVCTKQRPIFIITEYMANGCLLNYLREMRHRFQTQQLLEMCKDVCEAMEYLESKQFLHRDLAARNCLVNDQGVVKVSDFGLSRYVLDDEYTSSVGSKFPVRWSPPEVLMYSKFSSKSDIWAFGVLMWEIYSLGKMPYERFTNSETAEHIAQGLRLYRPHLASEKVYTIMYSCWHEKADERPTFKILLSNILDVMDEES
Experiment: BTK kinase inhibitory activity, ADP-Glo kinase assay (Promega V9071)
Details: ATP 10 uM, 8 ng BTK per reaction, 1 hour 30 °C, chemiluminescence
QUANTITY NAME: pIC50
Reminder that pIC50 means the negative base-10 logarithm of the concentration expressed in mol/L.

Form: Entry = C=CC(=O)N1CC[C@@H](C)[C@@H](Nc2nc(Nc3cnn(C4CC4)c3)nc3[nH]nc(SC)c23)C1 | System = Recombinant purified human BTK (Homo sapiens, UniProt Q06187) | pIC50 = ____
8.64

Further, for C=CC(=O)N1CCC[C@@H](Nc2nc(Nc3ccc(N4CCN(C)CC4)cc3)nc3[nH]cc(Cl)c23)C1 ?
7.78

Can you check C=CC(=O)N1CCC[C@@H](Sc2nc(Nc3cnn(CC(C)C)c3)nc3[nH]nc(Cl)c23)C1 next?
8.64

Follow-up entry: C=CC(=O)N1CC[C@@H](C)[C@@H](Nc2nc(Nc3cnn(CC#N)c3)nc3[nH]nc(Cl)c23)C1
8.92

Would you kindly repeat that for CCn1cc(Nc2nc(S[C@@H]3CCCN(C(=O)/C(C#N)=C/C4CC4)C3)c3c(Cl)c[nH]c3n2)cn1 ?
8.08

Now consider C=CC(=O)N1CCC[C@@H](Nc2nc(Nc3cnoc3)nc3[nH]cc(Cl)c23)C1 .
7.62

Input C=CC(=O)N1CCC[C@@H](Nc2nc(Nc3cnn(C(F)F)c3)nc3[nH]cc(Cl)c23)C1
8.37

Next: C=CC(=O)N1CCC[C@@H](Nc2nc(Nc3cnn(C)c3)nc3[nH]ncc23)C1
8.55

Next up: CC(C)(C)/C=C(\C#N)C(=O)N1CCC[C@@H](Nc2nc(Nc3cnn(C4CC4)c3)nc3[nH]nc(Cl)c23)C1
8.92

Next compound up: C=CC(=O)N1CCC[C@@H](N(C)c2nc(Nc3cnn(CC)c3)nc3[nH]nc(SC)c23)C1
8.80

Further, for CCn1cc(Nc2nc(S[C@@H]3CCCN(C(=O)/C(C#N)=C/C(C)C)C3)c3cc[nH]c3n2)cn1 ?
8.70

Repeat with C=CC(=O)N1CCC[C@@H](Nc2nc(Nc3cnn(C(C)C)c3)nc3[nH]nc(Cl)c23)C1
8.74

And the next one, C=CC(=O)N1CCC[C@@H](Nc2nc(Nc3cnn(CC(F)(F)F)c3)nc3[nH]nc(Cl)c23)C1 ?
8.74

What do you have for C=CC(=O)N1CCC[C@@H](Nc2nc(Nc3cnn(CC)c3)nc3[nH]ccc23)C1 ?
8.35

Please give the result for CCn1cc(Nc2nc(S[C@@H]3CCCN(C(=O)/C(C#N)=C/C(C)C)C3)c3c(Cl)c[nH]c3n2)cn1 too.
8.51
